experiment: Stability of the compound in presence of pronase (unknown origin) assessed as degradation measured after 360 mins by HPLC analysis; assay type: ADME; details: read-out: Drug degradation
Square brackets hold non-standard residues; d marks the D form. Peptide text beside a SMILES is read from it. Dap = NC[C@H](N)C(=O)O
Friendly reminder: metabolised at 6 h below 50% is Condition met, at or above is Condition not met.

Solved cases (4 shown):
CC[C@H](C)[C@@H]1NC(=O)[C@H](Cc2ccc(O)cc2)NC(=O)[C@@H](N)CSSC[C@@H](C(=O)N2CCC[C@H]2C(=O)N[C@@H](CC(C)C)C(=O)NCC(N)=O)NC(=O)[C@H](CC(N)=O)NC(=O)[C@H](CCC(N)=O)NC1=O | Condition not met
CC[C@H](C)[C@@H]1NC(=O)[C@H](Cc2ccc(O)cc2)NC(=O)[C@H](CN)NC(=O)CNC(=O)[C@H](CC(N)=O)NC(=O)[C@H](CCC(N)=O)NC1=O (cyclo([Dap]YIQNG)) | Condition met
NC[C@@H]1NC(=O)CNC(=O)[C@H](CC(N)=O)NC(=O)[C@H](CCC(N)=O)NC(=O)[C@H](Cc2ccccc2)NC(=O)[C@H](Cc2ccc(O)cc2)NC1=O (cyclo([Dap]YFQNG)) | Condition met
NC(=O)CC[C@@H]1NC(=O)[C@H](Cc2ccccc2)NC(=O)[C@H](Cc2ccc(O)cc2)NC(=O)[C@@H](N)CSSC[C@@H](C(=O)N2CCC[C@H]2C(=O)N[C@@H](CCCN=C(N)N)C(=O)NCC(N)=O)NC(=O)[C@H](CC(N)=O)NC1=O | Condition met

We next turn to a different molecule, shown below.
Given the entry NC(=O)CC[C@@H]1NC(=O)[C@H](Cc2ccccc2)NC(=O)[C@H](Cc2ccc(O)cc2)NC(=O)[C@H](Cc2ccc(O)cc2)NC(=O)CNC(=O)[C@H](CC(N)=O)NC1=O (cyclo(FQNGYY)) , would its reported metabolised at 6 h be below 50%?
Condition not met
